Molecular target: Virion infectivity factor (Human immunodeficiency virus type 1 group M subtype B (isolate BH10)) + Virion infectivity factor (Human immunodeficiency virus type 1 group M subtype B (isolate BRU/LAI)) + Virion infectivity factor (Human immunodeficiency virus type 1 group M subtype B (isolate PCV12)) + Virion infectivity factor (Human immunodeficiency virus type 1 group M subtype B (isolate HXB2)) + DNA dC->dU-editing enzyme APOBEC-3G (Homo sapiens) (UniProt P69720+P69721+P69722+P69723+Q9HC16)
Assay: inhibitors of Vif binding to APOBEC3G peptide, primary screen, biochemical, TR-FRET, GST-Vif 1-94, biotin-A3G peptide, dose response retest (AID 1117319);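 further: Vif residues 1-94 fused to GST binding biotinylated APOBEC3G peptide 110-148; 0% = full assay without inhibitor and 100% = GST in place of GST-Vif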
Settings: stronger effect = higher value
The whole screen tested about 260,000 compounds, of which about 1,500 (0.58%) were called active. Another 5% or so got no clear call; they are omitted. Not all results are given here. Potency and affinity values are given separately.
quantity_measured: inhibition (%)
Numbers only, in %.

compound | display_unit | inhibition
CCOc1ccc(N(CC(=O)OC)S(=O)(=O)c2c(C)noc2C)cc1 | % | -1.15
COc1cccc(CNC(=O)Cn2ncc3c(=O)oc4ccccc4c32)c1 | % | -6.25
COc1ccc(C(=O)NC(C)c2nnc(SCC(=O)Nc3nc(C)cs3)n2C)cc1 (configuration not stated) | % | 5.71
Cc1ccc(S(=O)(=O)Cc2c(C)noc2C)cc1 | % | 3.86
COc1ccc(CCn2c(O)c(C=Nc3cccc(F)c3)c(=O)[nH]c2=O)cc1OC | % | 22.7

Can you give me inhibition for all of these, one by one?
1. O=Cc1cnc(N2CCCCC2)s1
2. Cc1oc(/N=C/c2ccccc2O)c(C#N)c1C
3. CC(=O)c1cnc(N(C)C)s1
4. COc1ccc(CCn2c(N)cc(=O)[nH]c2=O)cc1OC
5. Clc1cccc2sc(N3CCCCC3)nc12

[-7.46, 6.98, -3.71, -7.47, 0.64]

Here are 2 compounds. What values of inhibition were reported for them?
1. CN(C)S(=O)(=O)c1cccc(NC(=O)CSc2nncn2-c2ccccc2)c1
2. COC(=O)c1ccc(Cn2nnc3ccccc32)cc1

1: 1.63; 2: 26.1

----------
Target: Virion infectivity factor (Human immunodeficiency virus type 1 group M subtype B (isolate BH10)) + Virion infectivity factor (Human immunodeficiency virus type 1 group M subtype B (isolate BRU/LAI)) + Virion infectivity factor (Human immunodeficiency virus type 1 group M subtype B (isolate PCV12)) + Virion infectivity factor (Human immunodeficiency virus type 1 group M subtype B (isolate HXB2)) + DNA dC->dU-editing enzyme APOBEC-3G (Homo sapiens) (UniProt P69720+P69721+P69722+P69723+Q9HC16)
Assay: inhibitors of Vif binding to APOBEC3G peptide, primary screen, biochemical, TR-FRET, GST-Vif 1-94, biotin-A3G peptide, dose response retest (AID 1117319);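 further: Vif residues 1-94 fused to GST binding biotinylated APOBEC3G peptide 110-148; 0% = full assay without inhibitor and 100% = GST in place of GST-Vif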
Details: stronger effect = higher value
Hit rate of the full screen: of about 260,000 compounds, about 1,500 (0.58%) were called active. About 5% were inconclusive and are not listed. Only a sample is shown. Entries with a potency or affinity are not part of this list.
quantity_measured: inhibition (%)
One number for each entry, in %.

compound | inhibition / %
Nn1c(SCc2ccccc2)nnc1-c1ccco1 | 2.72

Would you mind listing inhibition for each of the following compounds?
1. Cc1ccc(C(=O)OCC(=O)Nc2ccc(S(N)(=O)=O)cc2)c(O)c1
2. CC(=O)O[C@@H]1[C@@H](OC(C)=O)[C@H](n2ccc3cc([N+](=O)[O-])ccc32)OC[C@@H]1OC(C)=O

-10.3
11.9

Parameter requested: inhibition. Apply to each item below.
1. O=C(/C=C/c1ccco1)NCCc1ccccc1
2. Cc1cc(C)n2c(SCCC(C)C)nnc2n1
3. O=C(Nc1ccc(Cl)c(S(=O)(=O)N2CCOCC2)c1)c1ccccn1

1. 0.33
2. 10.9
3. -0.06

List reported inhibition for each of these compounds:
1. COc1ccc(S(=O)(=O)CCC(=O)NCCc2ccc(S(N)(=O)=O)cc2)cc1
2. Nc1ccc(S(=O)(=O)N2CCOCCOCCOCCOCCOCC2)cc1
3. O=C(N/N=C/c1ccc(O)c([N+](=O)[O-])c1)c1ccncc1

12.3
1.81
-22.5

Each compound below has a reported value. Please supply its inhibition.
1. Nc1cc(N)nc(SCc2ccccc2Cl)n1
2. CC1(C)CC(=O)c2c(O)cc(O)cc2O1
3. CN1CCc2cc(Cl)c(O)cc2[C@@H](c2ccccc2)C1
4. CN[C@H]1C[C@H]2c3[nH]c4ccccc4c3CCN2C(=O)[C@H]1[C@H](C)O

1: 0.21; 2: -0.4; 3: -6.09; 4: -5.11

Dear reader, for each entry below, please note its inhibition.
1. Clc1ccccc1CSc1ncccn1
2. O=[N+]([O-])c1ccc(/C=N/N2CCN(c3ccncc3S(=O)(=O)N3CCCCC3)CC2)cc1
3. COC(=O)COC(=O)CC(CC(N)=O)c1ccccc1 (stereo not given)
4. CCCCn1c(SCC(=O)c2ccc(OCC)cc2)nc2cc(S(N)(=O)=O)ccc21
5. Cc1cccc(NC(=S)NCc2ccc(F)cc2)c1

1. -2.52
2. -3.38
3. -2.81
4. 3.73
5. -7.76

For every item below, please supply its inhibition.
1. Cc1ccc(NC(=O)COC(=O)c2ccc(S(=O)(=O)N3CCCC3)cc2)cc1
2. COc1ccc(-c2cc(=O)n(-c3nc4ccccc4[nH]3)[nH]2)cc1

[-1.07, 10.5]

Provide inhibition values for the following items, in order.
1. COC(=O)Cc1cc(=O)n(-c2ccccc2)[nH]1
2. CCC(C)(C(=O)NC1CCCC1)N(C(=O)c1ccccn1)c1ccc(C)cc1 (stereo not given)
3. O=C(CCNS(=O)(=O)c1ccc(Br)cc1)NCCc1ccccc1
4. COc1ccc(CN(C(=O)c2cccs2)c2ccccc2C(=O)O)cc1

[20.8, 5.82, -1.9, -12.9]

For each listed entry, give its inhibition.
1. Cc1nnc(SCCn2c(N3CCCCC3)nc3c2c(=O)[nH]c(=O)n3C)s1
2. COc1ccc(-c2cc(C(=O)N3CCC3)c3ccccc3n2)cc1OC
3. Cc1ccc(S(=O)(=O)N2C[C@H]3C(=O)C[C@@H](c4ccc(Cl)cc4)N(S(=O)(=O)c4ccccc4C)[C@H]3C[C@H]2c2ccccc2)cc1
4. CCc1ccccc1OCC(=O)OCC(=O)N1CC(=O)Nc2ccccc21

0.62
-14.9
-0.22
-5.84
